# System: 188146-221-R-J1-PDC complex spheroid viability;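 also: spheroids exposed to compounds for seven days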
# Experiment description: Anticancer human tumor 188146-221-R-J1-PDC patient-derived colon adenocarcinoma cell line growth inhibition [POLQ]
# Run parameters: second compound 1 µM; first compound 0.0316 µM; hits give low values
Hi! Could you tag entries with viability, T/C below 90% as yes, and those at or above as no? Much appreciated.

| Compound | Measured target | Answer label |
| --- | --- | --- |
| COc1cc2cc(C(=O)CCC(=O)O)sc2cc1OC + Cc1cccc(N(C)C(=O)C2C(O)CCN2c2nc(C)cc(C(F)(F)F)c2C#N)c1 | 188146-221-R-J1-PDC complex spheroid viability | no |
| CC[C@@]1(O)C(=O)OCc2c1cc1n(c2=O)Cc2cc3c(CN(C)C)c(O)ccc3nc2-1 + Nc1ccc(C#CCN(C(=O)Cc2ncc(C(F)(F)F)cc2C(F)(F)F)c2ccc(F)cc2)nn1 | 188146-221-R-J1-PDC complex spheroid viability | yes |
| CC1COCCN1c1cc(-c2ccnn2C)c2ccnc(-c3ccn[nH]3)c2n1 (stereo not given) + Cc1cccc(N(C)C(=O)C2C(O)CCN2c2nc(C)cc(C(F)(F)F)c2C#N)c1 | 188146-221-R-J1-PDC complex spheroid viability | yes |

Next compound, please.
Data request: Here's an entry: C#Cc1c(F)ccc2cc(O)cc(-c3ncc4c(N5CC6CCC(C5)N6)nc(OCC56CCCN5CC(F)C6)nc4c3F)c12 (stereo not given) + Cc1cccc(N(C)C(=O)C2C(O)CCN2c2nc(C)cc(C(F)(F)F)c2C#N)c1 . Is its viability, T/C below 90%?
Data returned: no
